molecular target: KRas G12S (Homo sapiens, UniProt P01116, G12S); construct: Biotinylated KRas (corresponding to amino acids 1-169, produced at Accelegan Inc.); biotin (biotinylated); purchased Accelegan Inc; experiment: KRas binding assay, TR-FRET displacement of Cy5 labelled tracer; details: 60-minute incubation at room temperature, 1% DMSO, pH 7.5
Sequence (P01116 1-169 isoform P01116-2 G12S): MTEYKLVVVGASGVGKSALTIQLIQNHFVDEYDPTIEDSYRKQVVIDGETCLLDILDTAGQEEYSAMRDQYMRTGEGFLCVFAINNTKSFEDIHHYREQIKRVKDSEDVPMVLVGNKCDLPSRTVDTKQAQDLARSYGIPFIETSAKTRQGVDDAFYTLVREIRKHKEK
observed property: IC50 (nM)

{"columns": ["molecule", "units symbol", "IC50"],
 "data": [
  ["CCc1c(F)ccc2cc(O)cc(-c3ncc4c(N(C)CCCS(=O)(=O)n5cccn5)nc(OC[C@@]56CCCN5C[C@H](F)C6)nc4c3F)c12 [Example 230]", "nM", 123]
]}

[a] Cc1ccn(C(=O)[C@H]2CCCN(c3nc(OC[C@@]45CCCN4C[C@H](F)C5)nc4c(F)c(-c5ccc(F)c6sc(N)c(C#N)c56)c(Cl)cc34)CC2)n1 (atropisomer, axis not shown; (aS)) [Example 170]
[b] CCc1c(F)ccc2cc(O)cc(-c3ncc4c(NC[C@@H]5[C@H](C(=O)n6ccc(C)n6)C5(C)C)nc(OC[C@@]56CCCN5C[C@H](F)C6)nc4c3F)c12 [Example 109]
[c] N#Cc1c(N)sc2c(F)ccc(-c3c(Cl)cc4c(N5CCC(C(=O)N6CCCC6)CC5)nc(OC[C@@]56CCCN5C[C@H](F)C6)nc4c3F)c12 [Example 246]
[d] CCc1c(F)ccc2cc(O)cc(-c3ncc4c(N5C[C@@H]6[C@H](C5)[C@H]6C(=O)n5ccc(C)n5)nc(OC[C@@]56CCCN5C[C@H](F)C6)nc4c3F)c12 [Example 118]
Order the entries by their reported IC50, beginning at the minimum. Output the labels ranked as instructed.
a, c, b, d
(a: 2 nM, c: 14 nM, b: 99 nM, d: 437 nM)

Data provenance is patent US20260356856A1.
